Test system: HT 29
Assay: Growth inhibition test (MTT) for cytotoxic properties
Assay type: cell-based, human
Conditions: Table 1a, glycoconjugates of batracyline
IC50 for assorted compounds
Provide the reading as a plain figure in µM.

Data request: Which measured IC50 value corresponds to CC(NC(=O)C(N)CCCCNC(=S)Nc1ccc(OC2OC(CO)C(O)C(OCC(=O)[O-])C2O)cc1)C(=O)Nc1ccc2c(c1)CN1C(=O)c3ccccc3C1=N2.[Na+] (stereo not drawn) [Example 3.33, sodium salt] ?
Data returned: 70

Data request: Which measured IC50 value corresponds to "CO[C@@H]1[C@@H](O)[C@H](Oc2ccc(NC(=S)N[C@@H](CCCCN)C(=O)N[C@H](C)C(=O)Nc3ccc4c(c3)CN3C(=O)c5ccccc5C3=N4)cc2)O[C@H](CO)[C@@H]1OC" ?
Data returned: 15

----------
Tested on: bone marrow parent cells of the mouse
Test: CSF-induced proliferation of bone marrow parent cells, in vitro
Assay type: cell-based
Conditions: recombinant murine GM-CSF, 7 days
IC50 [μg/ml] CSF-induced proliferation of bone marrow parent cells of the mouse for assorted molecules
State the value with its unit after it.

Field: example entries. Status: answers known.
CO[C@H]1[C@H](O)[C@@H](Oc2ccc(NC(=S)N[C@H](C)C(=O)NC3C=CCC4CN(c5c(F)cc6c(=O)c(C(=O)O)cn(C7CC7)c6c5Cl)CC43)cc2)O[C@@H](C)[C@H]1O (stereo partly shown)    0.21 µg/mL
C[C@@H]1O[C@H](Oc2ccc(NC(=S)N[C@H](C)C(=O)NC3C=CCC4CN(c5c(F)cc6c(=O)c(C(=O)O)cn(C7CC7)c6c5Cl)CC43)cc2)[C@@H](O)[C@H](OCC(=O)[O-])[C@@H]1O.[Na+] (stereo partly shown)    0.27 µg/mL
COC1C(O)C(C)OC(Oc2ccc(NC(=S)NC(CCCCN)C(=O)NC3C=CC(C)C4CN(c5cc6c(cc5F)c(=O)c(C(=O)O)c5scc(C)n56)CC34)cc2)C1O.Cl (mixture of isomers)    3.6 µg/mL

Data request: Which measured IC50 [μg/ml] CSF-induced proliferation of bone marrow parent cells of the mouse value corresponds to COC1C(O)C(C)OC(Oc2ccc(NC(=S)NCCCCC(NC(=S)Nc3ccc(OC4OC(C)C(O)C(OC)C4O)cc3)C(=O)NC3C=CCC4CN(c5c(F)cc6c(=O)c(C(=O)O)cn(C7CC7)c6c5Cl)CC43)cc2)C1O (mixture of isomers) ?
Data returned: 2.9 µg/mL
